Target: HNF4alpha8 (COS-7 nuclear extract) (Homo sapiens, UniProt P41235-5 1-452)
Sequence: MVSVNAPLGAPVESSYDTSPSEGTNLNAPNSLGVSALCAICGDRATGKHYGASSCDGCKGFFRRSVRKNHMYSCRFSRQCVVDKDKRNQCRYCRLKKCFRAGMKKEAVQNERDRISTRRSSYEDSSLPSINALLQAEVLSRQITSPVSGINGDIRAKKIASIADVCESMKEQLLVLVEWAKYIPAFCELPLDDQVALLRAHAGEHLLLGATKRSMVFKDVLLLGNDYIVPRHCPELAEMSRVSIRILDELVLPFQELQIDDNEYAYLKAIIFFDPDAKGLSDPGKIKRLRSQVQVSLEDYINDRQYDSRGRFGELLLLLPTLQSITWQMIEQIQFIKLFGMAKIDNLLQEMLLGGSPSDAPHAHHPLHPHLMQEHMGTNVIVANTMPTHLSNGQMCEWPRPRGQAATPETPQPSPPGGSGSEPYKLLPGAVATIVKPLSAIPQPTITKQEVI
Assay: protein-binding microarray; COS-7 nuclear extract on double-stranded Agilent 4x180k PBM; binding buffer, salt, pH and temperature not given in the material; high values mean tight binding
Settings: chain copies: 2; label: 3' end of strand 1 on the slide; dsDNA, one strand shown
In all, about 18,000 sequences were measured (“log2 normalized intensity”: median about 0.36, highest 2% from about 7.3 on). This excerpt belongs to a sample that is enriched for the highest values.
Entries and their binding signal values follow.
parameter: binding signal

[[record]]
sequence_chain = "CCCCCACTGCCTGACCCCAAGTAATAGCCGGCCTAGGGAGATTAGAGTATCGGTCGA"
parameter = "binding signal"
recorded_value = "5.69 log2 normalized intensity"

[[record]]
sequence_chain = "TCTTTCAAGATAACAAGGCAAACTTTATCAGCCTAGGGAGATTAGAGTATCGGTCGA"
parameter = "binding signal"
recorded_value = "-0.554 log2 normalized intensity"

[[record]]
sequence_chain = "ATGGACTTTGAAGGAGATTCCTGTGTCAGCGCCTAGGGAGATTAGAGTATCGGTCGA"
parameter = "binding signal"
recorded_value = "1.23 log2 normalized intensity"

[[record]]
sequence_chain = "CCGTCCTGTCCTGGACTTTCCTTTGTTGGGGCCTAGGGAGATTAGAGTATCGGTCGA"
parameter = "binding signal"
recorded_value = "2.84 log2 normalized intensity"

[[record]]
sequence_chain = "AGTTTGCCACGGTCAGCAATGTGGACTTTGGCCTAGGGAGATTAGAGTATCGGTCGA"
parameter = "binding signal"
recorded_value = "6.83 log2 normalized intensity"


----------
Target: HNF4alpha8 (COS-7 nuclear extract) (Homo sapiens, UniProt P41235-5 1-452)
Sequence: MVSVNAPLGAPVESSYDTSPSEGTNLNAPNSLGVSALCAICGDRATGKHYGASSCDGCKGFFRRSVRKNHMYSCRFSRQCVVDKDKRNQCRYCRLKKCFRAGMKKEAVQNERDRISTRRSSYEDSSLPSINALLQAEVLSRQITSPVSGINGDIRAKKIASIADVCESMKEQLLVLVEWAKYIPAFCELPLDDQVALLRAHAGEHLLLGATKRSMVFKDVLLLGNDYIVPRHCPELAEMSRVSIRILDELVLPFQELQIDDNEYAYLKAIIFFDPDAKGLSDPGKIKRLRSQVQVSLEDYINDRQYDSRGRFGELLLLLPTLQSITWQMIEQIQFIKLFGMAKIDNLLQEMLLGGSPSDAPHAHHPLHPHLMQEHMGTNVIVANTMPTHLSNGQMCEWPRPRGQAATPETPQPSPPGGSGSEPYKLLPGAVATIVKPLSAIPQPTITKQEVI
Experiment: protein-binding microarray; COS-7 nuclear extract on double-stranded Agilent 4x180k PBM; binding buffer, salt, pH and temperature not given in the material; high values mean tight binding
Conditions: chain copies: 2; label: 3' end of strand 1 on the slide; dsDNA, one strand shown
The full ranking holds about 18,000 sequences; the median of “log2 normalized intensity” is about 0.36, and the highest 2% start at about 7.3. The entries come from a sample that favours the highest values as a whole.
parameter: binding signal (log2 normalized intensity)

[[record]]
sequence_chain = "GCTTGTTCTCTCCCCCAACCCCACCTTCATGCCTAGGGAGATTAGAGTATCGGTCGA"
units_symbol = "log2 normalized intensity"
recorded_value = 4.61

[[record]]
sequence_chain = "GCAACCTTTGCTCTCCCTCCTCTCTGAGCAGCCTAGGGAGATTAGAGTATCGGTCGA"
units_symbol = "log2 normalized intensity"
recorded_value = 2.28

[[record]]
sequence_chain = "CCTTGACCCTTCCTCCCATTTGCTGCTCTAGCCTAGGGAGATTAGAGTATCGGTCGA"
units_symbol = "log2 normalized intensity"
recorded_value = 1.81

[[record]]
sequence_chain = "TCTTTTGACCTTTGCCTCATTCTTATTGCCGCCTAGGGAGATTAGAGTATCGGTCGA"
units_symbol = "log2 normalized intensity"
recorded_value = 5.61

[[record]]
sequence_chain = "TTGACCTTCGAACCCTTGCCATTTACATCAGCCTAGGGAGATTAGAGTATCGGTCGA"
units_symbol = "log2 normalized intensity"
recorded_value = 6.21


----------
Target: HNF4alpha8 (COS-7 nuclear extract) (Homo sapiens, UniProt P41235-5 1-452)
Sequence: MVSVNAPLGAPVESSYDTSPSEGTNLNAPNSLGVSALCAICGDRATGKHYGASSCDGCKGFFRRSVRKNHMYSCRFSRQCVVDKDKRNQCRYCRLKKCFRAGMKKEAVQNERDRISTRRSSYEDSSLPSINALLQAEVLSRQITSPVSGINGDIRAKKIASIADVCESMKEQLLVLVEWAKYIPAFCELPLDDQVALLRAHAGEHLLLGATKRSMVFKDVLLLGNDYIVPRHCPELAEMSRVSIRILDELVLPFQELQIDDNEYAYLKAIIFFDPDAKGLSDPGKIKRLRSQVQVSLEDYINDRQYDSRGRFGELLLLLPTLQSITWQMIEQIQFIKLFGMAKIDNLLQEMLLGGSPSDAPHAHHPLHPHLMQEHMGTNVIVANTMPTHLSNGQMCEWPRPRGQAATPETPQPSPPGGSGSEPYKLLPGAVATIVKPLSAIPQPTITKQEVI
Assay: protein-binding microarray; COS-7 nuclear extract on double-stranded Agilent 4x180k PBM; binding buffer, salt, pH and temperature not given in the material; high values mean tight binding
Details: chain copies: 2; label: 3' end of strand 1 on the slide; dsDNA, one strand shown
The full ranking holds about 18,000 sequences; the median of “log2 normalized intensity” is about 0.36, and the highest 2% start at about 7.3. This excerpt belongs to a sample that is enriched for the highest values.
Collected binding signal values appear next to each entry.
parameter: binding signal (log2 normalized intensity)

[[record]]
sequence_chain = "AATGTGTGTTCTGCTGCCATTGGATGGAATGCCTAGGGAGATTAGAGTATCGGTCGA"
recorded_value = 1.51

[[record]]
sequence_chain = "AATAGCCCCAAATTCCTTTCAAACTGTATTGCCTAGGGAGATTAGAGTATCGGTCGA"
recorded_value = 1.37

[[record]]
sequence_chain = "CACTTACAAGTGTACAAAGGTCACTTCTGTGCCTAGGGAGATTAGAGTATCGGTCGA"
recorded_value = 7.03

[[record]]
sequence_chain = "AGCAGCATAAAGGACTTTCAACCCTGTGATGCCTAGGGAGATTAGAGTATCGGTCGA"
recorded_value = 3.89

[[record]]
sequence_chain = "TATGACCTTTGCTTTTCAAGATTTTACCTAGCCTAGGGAGATTAGAGTATCGGTCGA"
recorded_value = 2.72

[[record]]
sequence_chain = "TCCAACCTGTTCTTTTGAGCTGTGGTTAAGGCCTAGGGAGATTAGAGTATCGGTCGA"
recorded_value = 1.73

[[record]]
sequence_chain = "GCATGACCTCAACTCTCAGTTTGGCTCTTAGCCTAGGGAGATTAGAGTATCGGTCGA"
recorded_value = 0.116

[[record]]
sequence_chain = "ATTCCAGTGTTTCAAAGGAGTGTCTTTCTCGCCTAGGGAGATTAGAGTATCGGTCGA"
recorded_value = 1.51

[[record]]
sequence_chain = "TCACCTGCTCATTGACCCTTAGGCCAAGGCGCCTAGGGAGATTAGAGTATCGGTCGA"
recorded_value = 3.1

[[record]]
sequence_chain = "AGTATATTGGCTTGGCTGTGTCCCTTGACCGCCTAGGGAGATTAGAGTATCGGTCGA"
recorded_value = 3.67

[[record]]
sequence_chain = "TTATATCAGAGGAATGTCTGACCAACCTGTGCCTAGGGAGATTAGAGTATCGGTCGA"
recorded_value = 0.807

[[record]]
sequence_chain = "CTGTACACTTACAAGTGTACAAAGGTCACTGCCTAGGGAGATTAGAGTATCGGTCGA"
recorded_value = 8.53

[[record]]
sequence_chain = "AATCGACCTTTAGCACCGTAAGAGAGTATTGCCTAGGGAGATTAGAGTATCGGTCGA"
recorded_value = 4.63

[[record]]
sequence_chain = "AAATGAAGTGGTATCCTGCAGTCAGTCTGAGCCTAGGGAGATTAGAGTATCGGTCGA"
recorded_value = -0.508

[[record]]
sequence_chain = "AAAGATTGCAGCAAGGAATTCAACCCTTGTGCCTAGGGAGATTAGAGTATCGGTCGA"
recorded_value = 2.23

[[record]]
sequence_chain = "ACCAACCTGTCCAAAGGTCATCTGTCACTCGCCTAGGGAGATTAGAGTATCGGTCGA"
recorded_value = 6.36

[[record]]
sequence_chain = "CTAACCAGCTCTATCAGTCTGGGTCCAGTCGCCTAGGGAGATTAGAGTATCGGTCGA"
recorded_value = 2.82

[[record]]
sequence_chain = "CTTGGCTGTGTCCCTTGACCAAAGGTCACTGCCTAGGGAGATTAGAGTATCGGTCGA"
recorded_value = 7.67

[[record]]
sequence_chain = "TCAGAGGAATGTCTGACCAACCTGTCCAAAGCCTAGGGAGATTAGAGTATCGGTCGA"
recorded_value = -0.555

